B1: library; numbered along this chain (parent)
chain: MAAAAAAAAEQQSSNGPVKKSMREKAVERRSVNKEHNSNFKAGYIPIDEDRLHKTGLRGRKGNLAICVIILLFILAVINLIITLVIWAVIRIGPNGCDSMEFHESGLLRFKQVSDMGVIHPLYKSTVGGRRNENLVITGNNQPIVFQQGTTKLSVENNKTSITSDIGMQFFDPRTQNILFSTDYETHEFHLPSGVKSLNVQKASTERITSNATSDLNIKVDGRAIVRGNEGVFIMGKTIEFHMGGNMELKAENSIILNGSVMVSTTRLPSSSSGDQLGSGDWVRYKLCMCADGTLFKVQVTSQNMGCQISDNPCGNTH

# Variants of: B1
# Method description: SGCB cell-surface expression functional score (HA stain, bin4 vs bin1, normalised to synonymous) (log10 ratio); higher = more cell-surface SGCB (functional)
Measure: SGCB cell-surface expression functional score (log10)
One number for each entry.

Worked cases, SGCB cell-surface expression functional score (log10) given:
• R109M = -0.41
• R130Y = 0.43
• D172N = -0.02
• E24Y = -0.19
• Q147S = 0.16

Parameter requested: SGCB cell-surface expression functional score (log10). Apply to each item below.
1. R267S
2. K34N
3. E206C
4. A42T
5. Q11W
6. V27M

(A)
1. 0.28
2. -0.07
3. -0.71
4. 0.1
5. 0.61
6. -0.41

Parameter requested: SGCB cell-surface expression functional score (log10). Apply to each item below.
1. V85Y
2. F146I

(A)
[-0.17, 0.28]
